This collection of values is drawn from the supplement of paper PMC9262897.

compounds and their reported growth
# Test system: E. coli TESEC Mtb Alr
# Protocol details: growth (OD600 after 10 h); higher = more growth (less inhibition)
# Details: arabinose 10000 nM; compound 0.1 mM; raw OD600 reference: median of DMSO wells 0.264, cell-free background 0.041
Counter-ions that a name gives are not always drawn.
In your answer, state the number alone without any accompanying words.

Tell me measured growth for Nc1ccc(S(=O)(=O)Nc2cnc3ccccc3n2)cc1 [Sulfaquinoxaline sodium salt] please. 0.171

Tell me measured growth for CN(N=O)C(=O)N[C@H]1C(O)O[C@H](CO)[C@@H](O)[C@@H]1O (mixture of isomers) please. 0.253

Tell me measured growth for Cc1cn([C@H]2C[C@H](N=[N+]=[N-])[C@@H](CO)O2)c(=O)[nH]c1=O please. 0.0544

Tell me measured growth for N[C@H]1CONC1=O [(S)-(-)-Cycloserine] please. 0.0389

Tell me measured growth for Cc1ccc(S(=O)(=O)NC(=O)NN2CC3CCCC3C2)cc1 (stereo not drawn) [Gliclazide] please. 0.271

***
Tell me measured growth for c1ccc(-c2ccc(C(c3ccccc3)n3ccnc3)cc2)cc1 (stereo not drawn) please. 0.0548

Tell me measured growth for Clc1ccc(CSC(Cn2ccnc2)c2ccc(Cl)cc2Cl)cc1 (stereo not drawn) [Sulconazole nitrate] please. 0.0668

Tell me measured growth for O=C1c2cccc3c2[C@H](CCC3)CN1[C@@H]1CN2CCC1CC2 [Palonosetron hydrochloride] please. 0.263
